B1: CPEB3 Ribozyme (parent)
chain: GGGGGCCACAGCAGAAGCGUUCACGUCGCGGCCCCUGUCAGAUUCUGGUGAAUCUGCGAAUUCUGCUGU

- Variants of: B1
- Experiment Description: self-cleavage, relative activity (ratio to wild type); higher = more cleavage; co-transcriptional
Experimental Readout: self-cleavage

Measured self-cleavage, G14U C45U : 0.721

Record summary for C34G U62C : reported self-cleavage = 0.316

In plain terms, C39U G41A has a documented self-cleavage of 0.475

response.value for G1C G2A (field: self-cleavage) = 0.408

The value of self-cleavage measured for the variant C35A G47C turned out to be 0.189

Sure, the documented self-cleavage for U53C C54A is 0.506

self-cleavage reported for this variant G41C C63A : 0.296

Quick note, self-cleavage for G2U A42U landed at 0.0798

Lookup result for G2C A8C ; measured self-cleavage: 0.039

Lookup result for C12A U38G ; measured self-cleavage: 0.235

The reported self-cleavage of the variant U38A U67A was 0.941
